# System: mexY (EC) strain
# TEST METHOD NOTES: Efflux ability inhibition effect on drug efflux pump MexY (Test Examples 1 and 3): proliferation (OD595) of mexY (EC) strain with EM or LVFX at 1/4 MIC, EC75
# Type: cell-based, Escherichia coli
# CONDITIONS USED: Table 51, Test Example 1; combined with LVFX at 1/4 MIC; 16 to 20 hours culture, OD595

{"COMPOUND": "CCOc1cccc(/C=C/C#N)c1CN1CCN(C(=O)[C@H](N)C2CCN(CCc3ccccc3)CC2)CC1 [Example 34]", "EC75, mexY (EC) strain, LVFX": "A (12.5 μM<EC75≤25 μM)"}
{"COMPOUND": "COc1ccccc1CN1CCN(C(=O)[C@H](N)C2CCN(CC(CN)c3ccccc3)CC2)CC1 (some centres unmarked) [Example 136]", "EC75, mexY (EC) strain, LVFX": "B (25 μM<EC75≤100 μM)"}
{"COMPOUND": "CCOc1cccc(F)c1CN1CCN(C(=O)[C@H](N)C2CCN(CC(F)c3ccccc3)CC2)CC1 (some centres unmarked) [Example 59]", "EC75, mexY (EC) strain, LVFX": "B (25 μM<EC75≤100 μM)"}
{"COMPOUND": "COc1ccccc1CN1CCN(C(=O)[C@H](NCc2ccccc2)C2CCN(CCc3cccc(Cl)c3)CC2)CC1 [Example 142]", "EC75, mexY (EC) strain, LVFX": "B (25 μM<EC75≤100 μM)"}
{"COMPOUND": "CCOc1cccc(F)c1CN1CCN(C(=O)[C@H](N)C2CCN(CCC3CCCCC3)CC2)CC1 [Example 47]", "EC75, mexY (EC) strain, LVFX": "A (12.5 μM<EC75≤25 μM)"}
{"COMPOUND": "COc1ccccc1CN1CCN(C(=O)C(=NO)C2CCN(CCc3ccccc3)CC2)CC1 [Example 302]", "EC75, mexY (EC) strain, LVFX": "B (25 μM<EC75≤100 μM)"}
{"COMPOUND": "CCOc1cccc(F)c1CN1CCN(C(=O)[C@H](N)C2CCN(CCC3CCCC3)CC2)CC1 [Example 41]", "EC75, mexY (EC) strain, LVFX": "A (12.5 μM<EC75≤25 μM)"}
{"COMPOUND": "COc1ccccc1CN1CCN(C(=O)CN2CCC(CCc3ccccc3)(COCc3ccccc3)CC2)CC1 [Example 403]", "EC75, mexY (EC) strain, LVFX": "B (25 μM<EC75≤100 μM)"}
